TARGET_OF_ASSAY: medaka FXRα2 (Oryzias latipes)
Sequence (H2M6M7 1-485): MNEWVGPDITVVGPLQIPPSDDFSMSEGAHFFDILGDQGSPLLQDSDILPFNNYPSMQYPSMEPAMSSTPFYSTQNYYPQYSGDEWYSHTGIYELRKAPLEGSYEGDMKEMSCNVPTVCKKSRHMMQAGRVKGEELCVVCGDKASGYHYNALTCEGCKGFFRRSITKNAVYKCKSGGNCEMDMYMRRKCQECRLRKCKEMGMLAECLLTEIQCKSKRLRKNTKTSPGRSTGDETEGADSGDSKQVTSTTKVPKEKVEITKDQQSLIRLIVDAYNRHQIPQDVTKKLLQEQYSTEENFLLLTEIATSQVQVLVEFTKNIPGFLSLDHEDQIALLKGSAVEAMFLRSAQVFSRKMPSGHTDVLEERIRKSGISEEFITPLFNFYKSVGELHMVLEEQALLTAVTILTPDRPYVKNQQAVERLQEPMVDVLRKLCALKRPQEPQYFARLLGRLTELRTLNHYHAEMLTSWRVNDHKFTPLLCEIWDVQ
ASSAY_DETAILS: Transient transactivation luciferase assay in HEK293T cells, antagonist mode
Assay type: cell-based
ASSAY_CONDITIONS: Antagonists; in the presence of GW4064
QUANTITY_MEASURED: Current Study Medaka FXRa2 Activity Medaka FXRa2

COMPOUND	REPORTED_RESULT
CCCCCCCC(=O)OCC(COC(=O)CCCCCCC)OC(=O)CCCCCCC	Active
CO/N=C1\C[C@]2(C[C@@H]3C[C@@H](C/C=C(\C)C[C@@H](C)/C=C/C=C4\CO[C@@H]5[C@H](O)C(C)=C[C@@H](C(=O)O3)[C@]45O)O2)O[C@H](/C(C)=C/C(C)C)[C@H]1C [Moxidectin, reference compound]	Active
CCC(C)(c1ccc(O)cc1)c1ccc(O)cc1	Active
